Test system: LHPP gene
Assay: High-throughput screening of saRNAs targeting LHPP promoter: LHPP mRNA by one-step RT-qPCR in Huh7 cells
Assay type: cell-based, human
Details: 10 nM saRNA, 72 hours, relative to control (Mock)
Description: Human liver cancer cell line Huh7 was cultured in DMEM medium (Gibco), containing 10% of calf serum (Sigma-Aldrich) and 1% of penicillin/streptomycin (Gibco). The cells were cultured at 5% CO2 and 37° C. According to the instructions provided by the manufacturer, RNAiMax (Invitrogen, Carlsbad, Calif.) was used to transfect small activating RNAs at a concentration of 10 nM (unless otherwise specified). […]
d = 2'-deoxy (DNA); r = 2'-OH (RNA)
measurement label: Fold of changes in relative LHPP mRNA expression level (fold)

substance: RAG7-32: saRNA duplex; sense UUGCACCCGGUCUUCUUGCTT (SEQ ID NO: 44), antisense GCAAGAAGACCGGGUGCAATT (SEQ ID NO: 208) (sugars from the 5' end r19 d2, backbone not given here)
measurement unit: fold
measured result: 1.40
//
substance: RAG7-708: saRNA duplex; sense UUUCUUCUCAGCCCAGGUCTT (SEQ ID NO: 106), antisense GACCUGGGCUGAGAAGAAATT (SEQ ID NO: 270) (sugars from the 5' end r19 d2, backbone not given here)
measurement unit: fold
measured result: 1.21
//
substance: RAG7-169: saRNA duplex; sense UUGACCUUUCUUAGGGACUTT (SEQ ID NO: 61), antisense AGUCCCUAAGAAAGGUCAATT (SEQ ID NO: 225) (sugars from the 5' end r19 d2, backbone not given here)
measurement unit: fold
measured result: 1.34
//
substance: RAG7-146: saRNA duplex; sense UUCUGCUUUUCCUGCUCUUTT (SEQ ID NO: 10), antisense AAGAGCAGGAAAAGCAGAATT (SEQ ID NO: 174) (sugars from the 5' end r19 d2, backbone not given here)
measurement unit: fold
measured result: 1.69
//
substance: RAG7-887: saRNA duplex; sense GACCAGAAGUAAAGUGUUCTT (SEQ ID NO: 51), antisense GAACACUUUACUUCUGGUCTT (SEQ ID NO: 215) (sugars from the 5' end r19 d2, backbone not given here)
measurement unit: fold
measured result: 1.37
//
substance: RAG7-183: saRNA duplex; sense GUCUCAAUUUGCCUUUGACTT (SEQ ID NO: 27), antisense GUCAAAGGCAAAUUGAGACTT (SEQ ID NO: 191) (sugars from the 5' end r19 d2, backbone not given here)
measurement unit: fold
measured result: 1.51
//
substance: RAG7-112: saRNA duplex; sense UGGGAAGAAAGCUUCCGAATT (SEQ ID NO: 82), antisense UUCGGAAGCUUUCUUCCCATT (SEQ ID NO: 246) (sugars from the 5' end r19 d2, backbone not given here)
measurement unit: fold
measured result: 1.26
//
substance: RAG7-830: saRNA duplex; sense AUUGAGGAAACUCCUCCCUTT (SEQ ID NO: 36), antisense AGGGAGGAGUUUCCUCAAUTT (SEQ ID NO: 200) (sugars from the 5' end r19 d2, backbone not given here)
measurement unit: fold
measured result: 1.45

----------
Test system: LHPP gene
Experiment: High-throughput screening of saRNAs targeting LHPP promoter: LHPP mRNA by one-step RT-qPCR in Huh7 cells
Type: cell-based, human
Details: 10 nM saRNA, 72 hours, relative to control (Mock)
d = 2'-deoxy (DNA); r = 2'-OH (RNA)
measurement label: Fold of changes in relative LHPP mRNA expression level (fold)

substance: RAG7-681: saRNA duplex; sense CCUCAUCUAUGCAGGGCUGTT (SEQ ID NO: 149), antisense CAGCCCUGCAUAGAUGAGGTT (SEQ ID NO: 313) (sugars from the 5' end r19 d2, backbone not given here)
measured result: 1.13
//
substance: RAG7-100: saRNA duplex; sense UUCCGAAAAGGACACCGUUTT (SEQ ID NO: 125), antisense AACGGUGUCCUUUUCGGAATT (SEQ ID NO: 289) (sugars from the 5' end r19 d2, backbone not given here)
measured result: 1.17
//
substance: RAG7-139: saRNA duplex; sense UUUCCUGCUCUUUGUCCGCTT (SEQ ID NO: 7), antisense GCGGACAAAGAGCAGGAAATT (SEQ ID NO: 171) (sugars from the 5' end r19 d2, backbone not given here)
measured result: 1.73
//
substance: RAG7-697: saRNA duplex; sense CCCAGGUCCUAUGCAUCCUTT (SEQ ID NO: 41), antisense AGGAUGCAUAGGACCUGGGTT (SEQ ID NO: 205) (sugars from the 5' end r19 d2, backbone not given here)
measured result: 1.43
//
substance: RAG7-195: saRNA duplex; sense AGGUGCCUUCUUGUCUCAATT (SEQ ID NO: 28), antisense UUGAGACAAGAAGGCACCUTT (SEQ ID NO: 192) (sugars from the 5' end r19 d2, backbone not given here)
measured result: 1.51
//
substance: RAG7-678: saRNA duplex; sense CAUCUAUGCAGGGCUGUUATT (SEQ ID NO: 63), antisense UAACAGCCCUGCAUAGAUGTT (SEQ ID NO: 227) (sugars from the 5' end r19 d2, backbone not given here)
measured result: 1.33
//
substance: RAG7-92: saRNA duplex; sense AGGACACCGUUUCAGGGGCTT (SEQ ID NO: 155), antisense GCCCCUGAAACGGUGUCCUTT (SEQ ID NO: 319) (sugars from the 5' end r19 d2, backbone not given here)
measured result: 1.11
//
substance: RAG7-103: saRNA duplex; sense AGCUUCCGAAAAGGACACCTT (SEQ ID NO: 72), antisense GGUGUCCUUUUCGGAAGCUTT (SEQ ID NO: 236) (sugars from the 5' end r19 d2, backbone not given here)
measured result: 1.29
//
substance: RAG7-889: saRNA duplex; sense UGGACCAGAAGUAAAGUGUTT (SEQ ID NO: 115), antisense ACACUUUACUUCUGGUCCATT (SEQ ID NO: 279) (sugars from the 5' end r19 d2, backbone not given here)
measured result: 1.19
//
substance: RAG7-821: saRNA duplex; sense ACUCCUCCCUUUUAAUAUCTT (SEQ ID NO: 89), antisense GAUAUUAAAAGGGAGGAGUTT (SEQ ID NO: 253) (sugars from the 5' end r19 d2, backbone not given here)
measured result: 1.25
//
substance: RAG7-198: saRNA duplex; sense UACAGGUGCCUUCUUGUCUTT (SEQ ID NO: 134), antisense AGACAAGAAGGCACCUGUATT (SEQ ID NO: 298) (sugars from the 5' end r19 d2, backbone not given here)
measured result: 1.16
//
substance: RAG7-143: saRNA duplex; sense UGCUUUUCCUGCUCUUUGUTT (SEQ ID NO: 102), antisense ACAAAGAGCAGGAAAAGCATT (SEQ ID NO: 266) (sugars from the 5' end r19 d2, backbone not given here)
measured result: 1.21
//
substance: RAG7-896: saRNA duplex; sense GCUAUGUUGGACCAGAAGUTT (SEQ ID NO: 69), antisense ACUUCUGGUCCAACAUAGCTT (SEQ ID NO: 233) (sugars from the 5' end r19 d2, backbone not given here)
measured result: 1.30
//
substance: RAG7-736: saRNA duplex; sense UGGGUUUAACGCAUUGUGATT (SEQ ID NO: 131), antisense UCACAAUGCGUUAAACCCATT (SEQ ID NO: 295) (sugars from the 5' end r19 d2, backbone not given here)
measured result: 1.16
//
substance: RAG7-853: saRNA duplex; sense AACUUGAAAGGUUCCGAGGTT (SEQ ID NO: 146), antisense CCUCGGAACCUUUCAAGUUTT (SEQ ID NO: 310) (sugars from the 5' end r19 d2, backbone not given here)
measured result: 1.14
//
substance: RAG7-149: saRNA duplex; sense GUUUUCUGCUUUUCCUGCUTT (SEQ ID NO: 99), antisense AGCAGGAAAAGCAGAAAACTT (SEQ ID NO: 263) (sugars from the 5' end r19 d2, backbone not given here)
measured result: 1.22

----------
Tested on: LHPP gene
Experiment: High-throughput screening of saRNAs targeting LHPP promoter: LHPP mRNA by one-step RT-qPCR in Huh7 cells
Assay type: cell-based, human
Conditions: 10 nM saRNA, 72 hours, relative to control (Mock)
d = 2'-deoxy (DNA); r = 2'-OH (RNA)
measurement label: Fold of changes in relative LHPP mRNA expression level (log2)

substance: RAG7-709: saRNA duplex; sense UUUUCUUCUCAGCCCAGGUTT (SEQ ID NO: 126), antisense ACCUGGGCUGAGAAGAAAATT (SEQ ID NO: 290) (sugars from the 5' end r19 d2, backbone not given here)
measured result: 0.22
//
substance: RAG7-828: saRNA duplex; sense UGAGGAAACUCCUCCCUUUTT (SEQ ID NO: 108), antisense AAAGGGAGGAGUUUCCUCATT (SEQ ID NO: 272) (sugars from the 5' end r19 d2, backbone not given here)
measured result: 0.26
//
substance: RAG7-830: saRNA duplex; sense AUUGAGGAAACUCCUCCCUTT (SEQ ID NO: 36), antisense AGGGAGGAGUUUCCUCAAUTT (SEQ ID NO: 200) (sugars from the 5' end r19 d2, backbone not given here)
measured result: 0.54
//
substance: RAG7-32: saRNA duplex; sense UUGCACCCGGUCUUCUUGCTT (SEQ ID NO: 44), antisense GCAAGAAGACCGGGUGCAATT (SEQ ID NO: 208) (sugars from the 5' end r19 d2, backbone not given here)
measured result: 0.49
//
substance: RAG7-676: saRNA duplex; sense UCUAUGCAGGGCUGUUAUCTT (SEQ ID NO: 83), antisense GAUAACAGCCCUGCAUAGATT (SEQ ID NO: 247) (sugars from the 5' end r19 d2, backbone not given here)
measured result: 0.33
//
substance: RAG7-678: saRNA duplex; sense CAUCUAUGCAGGGCUGUUATT (SEQ ID NO: 63), antisense UAACAGCCCUGCAUAGAUGTT (SEQ ID NO: 227) (sugars from the 5' end r19 d2, backbone not given here)
measured result: 0.41
//
substance: RAG7-694: saRNA duplex; sense AGGUCCUAUGCAUCCUCAUTT (SEQ ID NO: 3), antisense AUGAGGAUGCAUAGGACCUTT (SEQ ID NO: 167) (sugars from the 5' end r19 d2, backbone not given here)
measured result: 0.91
//
substance: RAG7-704: saRNA duplex; sense UUCUCAGCCCAGGUCCUAUTT (SEQ ID NO: 112), antisense AUAGGACCUGGGCUGAGAATT (SEQ ID NO: 276) (sugars from the 5' end r19 d2, backbone not given here)
measured result: 0.26
//
substance: RAG7-145: saRNA duplex; sense UCUGCUUUUCCUGCUCUUUTT (SEQ ID NO: 9), antisense AAAGAGCAGGAAAAGCAGATT (SEQ ID NO: 173) (sugars from the 5' end r19 d2, backbone not given here)
measured result: 0.77
//
substance: RAG7-916: saRNA duplex; sense CUCUUCUUUGAAAGCUCAATT (SEQ ID NO: 33), antisense UUGAGCUUUCAAAGAAGAGTT (SEQ ID NO: 197) (sugars from the 5' end r19 d2, backbone not given here)
measured result: 0.56
//
substance: RAG7-111: saRNA duplex; sense GGGAAGAAAGCUUCCGAAATT (SEQ ID NO: 117), antisense UUUCGGAAGCUUUCUUCCCTT (SEQ ID NO: 281) (sugars from the 5' end r19 d2, backbone not given here)
measured result: 0.24
//
substance: RAG7-121: saRNA duplex; sense CUGAUCUCCUGGGAAGAAATT (SEQ ID NO: 52), antisense UUUCUUCCCAGGAGAUCAGTT (SEQ ID NO: 216) (sugars from the 5' end r19 d2, backbone not given here)
measured result: 0.45
//
substance: RAG7-721: saRNA duplex; sense GUGAUAGUCCCGUUUUCUUTT (SEQ ID NO: 133), antisense AAGAAAACGGGACUAUCACTT (SEQ ID NO: 297) (sugars from the 5' end r19 d2, backbone not given here)
measured result: 0.21
//
substance: RAG7-196: saRNA duplex; sense CAGGUGCCUUCUUGUCUCATT (SEQ ID NO: 38), antisense UGAGACAAGAAGGCACCUGTT (SEQ ID NO: 202) (sugars from the 5' end r19 d2, backbone not given here)
measured result: 0.54
//
substance: RAG7-102: saRNA duplex; sense GCUUCCGAAAAGGACACCGTT (SEQ ID NO: 96), antisense CGGUGUCCUUUUCGGAAGCTT (SEQ ID NO: 260) (sugars from the 5' end r19 d2, backbone not given here)
measured result: 0.30
//
substance: RAG7-879: saRNA duplex; sense GUAAAGUGUUCUCGUUUCUTT (SEQ ID NO: 40), antisense AGAAACGAGAACACUUUACTT (SEQ ID NO: 204) (sugars from the 5' end r19 d2, backbone not given here)
measured result: 0.53
